- assay_info: RP, Waters ACQUITY UPLC BEH C18, 100 × 2.1 mm, 1.7 µm, 0.3 mL/min, estimated dead time 0.73 min; A: water + 0.1% formic acid, pH 3; B: methanol + 0.1% formic acid, pH 3; gradient (min/%B) 0/10 14/90 16/90 18/10
- condition: stereoisomer not certain
parameter: LC retention time (min)
Give just the number in min; leave the unit off.

# compound, unit_descriptor, LC retention time
rows = [
    ("CCOP(=S)(Oc1ccc([N+](=O)[O-])cc1)c1ccccc1 (centres undefined)", "min", 12.2),
    ("C#CC(C)(C)NC(=O)c1cc(Cl)cc(Cl)c1 [Propyzamide]", "min", 10.3),
]

Query: # return recorded LC retention time for entry CCOP(=O)(Sc1ccccc1)Sc1ccccc1
Reply: 11.7

Query: For the compound C=CCN(CC=C)C(=O)C(Cl)Cl , give its reported LC retention time.
Reply: 7.52

Query: Could you please provide reported LC retention time for Cc1cc(C)nc(NS(=O)(=O)c2ccc(N)cc2)n1 ? Thanks!
Reply: 3.59

Query: Look up and report measured LC retention time for this entry: CCC(=O)OC1(C(=O)CCl)C(C)CC2C3CCC4=CC(=O)C=CC4(C)C3(F)C(O)CC21C (centres undefined) [Clobetasol propionate]
Reply: 11.4

Query: Give reported LC retention time value for CCOC1Oc2ccc(OS(C)(=O)=O)cc2C1(C)C (centres undefined) [Ethofumesate]
Reply: 9.89
